Endpoint: IC50. System: mTOR kinase (Homo sapiens, UniProt P42345). Items follow.
Sequence (P42345 1362-2549 limits assumed): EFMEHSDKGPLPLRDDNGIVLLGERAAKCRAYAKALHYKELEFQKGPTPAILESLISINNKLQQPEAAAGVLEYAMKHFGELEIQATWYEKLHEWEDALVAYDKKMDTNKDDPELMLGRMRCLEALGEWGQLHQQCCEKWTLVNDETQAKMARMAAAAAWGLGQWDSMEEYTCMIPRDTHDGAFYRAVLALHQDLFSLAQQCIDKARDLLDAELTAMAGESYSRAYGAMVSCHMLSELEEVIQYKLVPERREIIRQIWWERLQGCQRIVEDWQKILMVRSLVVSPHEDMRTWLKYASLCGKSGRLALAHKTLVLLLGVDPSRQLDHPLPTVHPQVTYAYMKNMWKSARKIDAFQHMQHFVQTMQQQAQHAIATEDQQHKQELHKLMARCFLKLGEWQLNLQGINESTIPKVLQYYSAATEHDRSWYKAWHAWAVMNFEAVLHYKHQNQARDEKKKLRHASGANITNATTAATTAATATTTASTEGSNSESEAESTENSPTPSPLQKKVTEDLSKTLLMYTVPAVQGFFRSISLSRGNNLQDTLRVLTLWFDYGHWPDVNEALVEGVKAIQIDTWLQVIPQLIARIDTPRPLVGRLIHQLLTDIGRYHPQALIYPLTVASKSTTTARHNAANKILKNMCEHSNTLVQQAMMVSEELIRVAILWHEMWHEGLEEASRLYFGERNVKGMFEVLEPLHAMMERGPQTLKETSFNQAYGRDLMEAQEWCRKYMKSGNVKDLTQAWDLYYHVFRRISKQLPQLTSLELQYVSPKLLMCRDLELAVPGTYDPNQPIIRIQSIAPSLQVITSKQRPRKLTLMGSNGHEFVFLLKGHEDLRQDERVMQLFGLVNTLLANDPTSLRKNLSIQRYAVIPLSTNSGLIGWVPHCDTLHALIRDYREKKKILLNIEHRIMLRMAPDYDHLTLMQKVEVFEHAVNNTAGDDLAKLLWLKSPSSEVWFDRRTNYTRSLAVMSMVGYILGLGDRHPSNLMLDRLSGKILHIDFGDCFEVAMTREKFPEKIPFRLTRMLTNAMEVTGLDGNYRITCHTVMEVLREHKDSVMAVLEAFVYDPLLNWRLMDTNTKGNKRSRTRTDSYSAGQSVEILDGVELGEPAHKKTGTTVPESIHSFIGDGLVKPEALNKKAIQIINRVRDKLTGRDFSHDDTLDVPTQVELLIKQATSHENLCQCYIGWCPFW

>>> df
                                   compound  recorded_measurement
0  CC(=O)Nc1ccc(F)c(-c2cnc3c(N4CCOCC4)nc(-c4cnc(N)nc4)nc3c2)c1F          50 to 200 nM
1  Nc1ncc(-c2nc(N3CCOCC3)c3ncc(-c4ccc(NC(=O)C5CC5)cc4F)cc3n2)cn1          50 to 200 nM
2  CS(=O)(=O)Nc1cncc(-c2cnc3c(N4CCOCC4)nc(-c4cnc(N)nc4)nc3c2)c1               < 50 nM

Next, consider the following compound.
IC50 for mTOR kinase (Homo sapiens, UniProt P42345) with input CC(O)C(=O)N1CCN(Cc2cnc3c(N4CCOCC4)nc(-c4cnc(N)nc4)nc3c2)CC1 (stereo not shown) equals 201 to 10000 nM

---

Target: mTOR kinase (Homo sapiens, UniProt P42345)
Here, each record is paired with measured IC50 data.

In [3]: df
Out[3]:
                         structure_notation  measurement_name  recorded_measurement
0  CC(=O)Nc1cccc(-c2cnc3c(N4CCOCC4)nc(-c4cnc(N)nc4)nc3c2)c1              IC50               < 50 nM
1  Nc1ncc(-c2nc(N3CCOCC3)c3ncc(-c4cccc(NC(=O)c5ccco5)c4)cc3n2)cn1              IC50               < 50 nM

Briefly, IC50 measured for CN1CCN(c2cncc(-c3cnc4c(N5CCOCC5)nc(-c5cnc(N)nc5)nc4c3)c2)CC1 : 50 to 200 nM

get_value(item= CN1CCN(C(=O)c2ccc(-c3cnc4c(N5CCOCC5)nc(-c5cnc(N)nc5)nc4c3)o2)CC1 , readout=IC50) returns 50 to 200 nM

Kindly note the recorded IC50 for Nc1ncc(-c2nc(N3CCOCC3)c3ncc(-c4cc(NC(=O)c5cccnc5)ccc4F)cc3n2)cn1 , which is < 50 nM

# compound CC(=O)Nc1cccc(-c2cnc3c(N4CCOCC4)nc(-c4cnc(N)nc4)nc3c2)c1C ; its IC50 = 50 to 200 nM

---

Quick record of IC50 values for UniProt:P42345.

Solved cases (2 shown):
>>> print(df.to_string())
                                   compound  measurement_name  recorded_measurement
0  Nc1ncc(-c2nc(N3CCOCC3)c3ncc(-c4cccc(NC(=O)C5CCC5)c4)cc3n2)cn1 [Example 76]              IC50               < 50 nM
1  CC(C)(O)C(=O)N1CCN(Cc2ccc3c(N4CCOCC4)nc(-c4cnc(N)nc4)nc3c2)CC1 [Example 91]              IC50       201 to 10000 nM

Value sought: IC50, system UniProt:P42345, item CC(=O)N1CCN(Cc2ccc3c(N4CCOCC4)nc(-c4cnc(N)nc4)nc3c2)CC1 [Example 92] . Result: 201 to 10000 nM

Considering CN(C)CC(=O)Nc1cccc(-c2ccc3c(N4CCOCC4)nc(-c4cnc(N)nc4)nc3c2)c1 [Example 42] , its IC50 with UniProt:P42345 was recorded as 50 to 200 nM
